Assign self-cleavage kobs at 40 uM GlcN6P to each entry below.
B1: glmS ribozyme (parent)
chain: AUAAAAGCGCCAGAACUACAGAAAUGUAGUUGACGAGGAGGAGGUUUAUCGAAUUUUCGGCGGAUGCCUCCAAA

Variants of: B1
Assay: self-cleavage kobs at 40 uM GlcN6P; higher = faster cleavage; RNA array
Conditions: with glucosamine-6-phosphate
Variants at the floor of the assay were thinned out.
Numbers only, in s⁻¹.

Previously resolved entries follow.
In [3]: df
Out[3]:
                           primary_sequence  recorded_measurement
0  AUAAAAGCGCCAGAACUACAGAAAUGUAGUUGACGAGGAGGAGGUUUAUCGAGUUUUCGGCGGAUGCCUUCAAA [A53G C70U]               0.00158
1  AUAAAAGCGCAAGAACUACAGAAAUGUAGUUGACGAGGAGGAGGUUUAUCUGAUUUACGGCGGAUCCCUACAAA [C11A G51U A52G U57A G66C C70A]              5.04e-05

Would you kindly look at the next entry?
Exam item: Entry under review: AUAAAGGCGCCAGUACUACAGAAAUGUAGUCGACGAGGAGGAGGUUUAUGGAAUUUUCGGCGGAUGCCUCCAAA [A6G A14U U31C C50G] . Reported self-cleavage kobs at 40 uM GlcN6P?
Marked response: 4.57e-05
